Biological target: PI3K δ (Homo sapiens, UniProt O00329)
Construct: purchased Upstate / Millipore Corporation
Sequence (O00329 whole entry): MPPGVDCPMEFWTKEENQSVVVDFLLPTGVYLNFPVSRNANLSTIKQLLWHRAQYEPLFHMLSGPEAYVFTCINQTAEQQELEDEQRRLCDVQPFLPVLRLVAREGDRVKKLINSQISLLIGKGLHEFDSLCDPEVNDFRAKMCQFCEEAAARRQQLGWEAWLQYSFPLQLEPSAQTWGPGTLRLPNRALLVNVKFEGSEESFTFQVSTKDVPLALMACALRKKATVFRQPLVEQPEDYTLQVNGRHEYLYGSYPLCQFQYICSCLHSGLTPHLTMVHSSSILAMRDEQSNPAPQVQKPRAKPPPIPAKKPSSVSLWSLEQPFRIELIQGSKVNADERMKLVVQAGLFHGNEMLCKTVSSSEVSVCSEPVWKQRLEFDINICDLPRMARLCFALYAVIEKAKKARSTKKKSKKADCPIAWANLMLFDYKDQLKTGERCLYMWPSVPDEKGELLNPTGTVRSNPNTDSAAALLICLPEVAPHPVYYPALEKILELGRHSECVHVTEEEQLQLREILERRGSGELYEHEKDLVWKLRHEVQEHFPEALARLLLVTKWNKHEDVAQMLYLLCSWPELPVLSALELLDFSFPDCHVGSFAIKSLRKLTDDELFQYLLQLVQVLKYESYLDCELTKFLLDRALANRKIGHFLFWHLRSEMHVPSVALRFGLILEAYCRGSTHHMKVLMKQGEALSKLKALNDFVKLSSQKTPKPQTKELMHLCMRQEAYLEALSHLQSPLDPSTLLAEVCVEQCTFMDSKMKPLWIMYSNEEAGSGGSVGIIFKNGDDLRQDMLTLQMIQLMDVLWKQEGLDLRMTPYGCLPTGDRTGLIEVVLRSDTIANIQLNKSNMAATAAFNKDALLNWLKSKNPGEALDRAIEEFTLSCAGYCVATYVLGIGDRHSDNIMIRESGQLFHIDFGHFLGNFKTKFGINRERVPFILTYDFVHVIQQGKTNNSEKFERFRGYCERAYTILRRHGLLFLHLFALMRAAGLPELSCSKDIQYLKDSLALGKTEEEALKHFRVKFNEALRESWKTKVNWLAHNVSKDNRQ
Sequence (P27986 whole entry partner): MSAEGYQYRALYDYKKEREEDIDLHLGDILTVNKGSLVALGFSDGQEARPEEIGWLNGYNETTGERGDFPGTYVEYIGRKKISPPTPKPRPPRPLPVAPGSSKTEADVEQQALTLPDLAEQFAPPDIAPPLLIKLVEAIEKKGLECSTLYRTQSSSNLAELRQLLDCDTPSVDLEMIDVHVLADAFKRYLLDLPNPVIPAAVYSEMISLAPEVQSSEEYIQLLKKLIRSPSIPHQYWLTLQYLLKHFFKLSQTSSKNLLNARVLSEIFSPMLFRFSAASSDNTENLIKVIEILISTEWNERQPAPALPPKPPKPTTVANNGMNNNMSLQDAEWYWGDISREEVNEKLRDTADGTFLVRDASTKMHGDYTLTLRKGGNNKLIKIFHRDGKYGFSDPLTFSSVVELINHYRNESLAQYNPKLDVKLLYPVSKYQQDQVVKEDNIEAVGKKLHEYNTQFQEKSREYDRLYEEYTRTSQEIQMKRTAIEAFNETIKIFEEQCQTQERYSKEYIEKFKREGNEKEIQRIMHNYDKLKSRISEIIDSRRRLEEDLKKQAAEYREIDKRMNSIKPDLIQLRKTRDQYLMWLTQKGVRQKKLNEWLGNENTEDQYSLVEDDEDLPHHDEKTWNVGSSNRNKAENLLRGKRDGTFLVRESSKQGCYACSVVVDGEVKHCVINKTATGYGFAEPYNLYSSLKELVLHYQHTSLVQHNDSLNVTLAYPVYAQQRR
Test: PI 3-Kinase (human) HTRF assay, PI3K δ
Format: biochemical
Details: read-out: PI3K δ IC50
Reported Endpoint: IC50

Compound: C[C@H]1CN(c2nc3cc(-c4ccc5oc(N)nc5c4)ccc3nc2N)CCN1
Target Of Assay: PI3K δ (Homo sapiens, UniProt O00329)
IC50: > 10 µM

Query: Given Nc1nc2cccc(-c3ccc4ncc(C(=O)N5CCOCC5)n4c3)c2o1 , state its recorded IC50.
Response: > 10 µM

Query: Given Nc1nc2cc(-c3ccc4ncc(C(=O)N5CCCC5)n4c3)ccc2o1 , state its recorded IC50.
Response: < 1 µM

Query: Given Nc1nc2cc(-c3ccc4ncc(C(=O)N5CCOCC5)n4c3)cnc2o1 , state its recorded IC50.
Response: > 10 µM

Query: Given CN1CCN(CCNc2cnc3ccc(-c4ccc5oc(N)nc5c4)cc3n2)CC1 , state its recorded IC50.
Response: < 1 µM

Query: Given CN1CCN(c2ncnc3ccc(-c4ccc5oc(N)nc5c4)cc23)CC1 , state its recorded IC50.
Response: < 10 µM

* * *

Target: PI3K δ (Homo sapiens, UniProt O00329)
Construct: purchased Upstate / Millipore Corporation
Test: PI 3-Kinase (human) HTRF assay, PI3K δ
Assay type: biochemical
Conditions: read-out: PI3K δ IC50
pIC50: −log10 of the molar value.
Recorded pIC50 by entry

Compound: O=C(c1cnc2ccc(-c3cnc(Cl)c(NS(=O)(=O)c4ccccc4)c3)cn12)N1CCOCC1 [Compound 451]
pIC50: > 7.00

Query: Given CN1CCC(NC(=O)c2cnc3ccc(-c4ccc5oc(N)nc5c4)nn23)CC1 [Compound 203] , state its recorded pIC50.
Response: > 6.00

Query: Given CN1CC(C(=O)N2CCC(Nc3ncnc4ccc(-c5ccc6oc(N)nc6c5)cc34)CC2)C1 [Compound 138] , state its recorded pIC50.
Response: > 7.00

Query: Given C[C@@H]1COCCN1C(=O)c1cnc2ccc(-c3ccc4oc(N)nc4c3)cn12 [Compound 495] , state its recorded pIC50.
Response: < 5.00

Query: Given C[C@H]1CN(c2cnc3ccc(-c4ccc5oc(N)nc5c4)cc3c2)CCN1 [Compound 396] , state its recorded pIC50.
Response: < 5.00

Query: Given CS(=O)(=O)N1CCN(C2CCN(c3cnc4ccc(-c5ccc6oc(N)nc6c5)cc4n3)CC2)CC1 [Compound 377] , state its recorded pIC50.
Response: > 5.00

Query: Given CC(C)N1CCN(c2cnc3ccc(-c4ccc5oc(N)nc5c4)cc3n2)CC1 [Compound 84] , state its recorded pIC50.
Response: > 6.00

Query: Given Nc1nc2cc(-c3ccc4nc(N)oc4c3)ccc2o1 [Compound 241] , state its recorded pIC50.
Response: > 6.00

Query: Given CC1CN(c2cnc3ccc(-c4ccc5oc(N)nc5c4)cc3n2)CCN1 (stereo not shown) [Compound 149] , state its recorded pIC50.
Response: > 5.00

Query: Given Nc1nc2cc(-c3ccc4ncc(N5CC(C(=O)N6CCN(C7CC7)CC6)C5)nc4c3)ccc2o1 [Compound 276] , state its recorded pIC50.
Response: > 6.00

Query: Given Nc1nc2cc(-c3ccc4ncc(N5CCN(C(=O)[C@@H](N)CO)CC5)nc4c3)ccc2o1 [Compound 298] , state its recorded pIC50.
Response: > 5.00

Query: Given Nc1nc2cc(-c3ccc4ncc(C(=O)N5CCC(N6CCOCC6)CC5)n4c3)ccc2o1 [Compound 163] , state its recorded pIC50.
Response: > 5.00

Query: Given Nc1nc2cc(-c3ccc4ncc(N5CC(N6CCOCC6)C5)nc4c3)cc(F)c2o1 [Compound 361] , state its recorded pIC50.
Response: > 5.00

Query: Given COC(=O)N1CCN(c2cnc3ccc(-c4ccc5oc(N)nc5c4)cc3n2)CC1 [Compound 193] , state its recorded pIC50.
Response: > 5.00

Query: Given Nc1nc2cc(-c3cc(F)c4ncc(C(=O)N5CCOCC5)n4c3)ccc2o1 [Compound 438] , state its recorded pIC50.
Response: < 5.00

Query: Given Nc1nc2cc(-c3ccc4nccc(NCCN5CCOCC5)c4c3)ccc2o1 [Compound 33] , state its recorded pIC50.
Response: > 6.00

Query: Given Cc1cc(-c2ccc3ncc(C(=O)N4CCOCC4)n3c2)cc2nc(N)oc12 [Compound 364] , state its recorded pIC50.
Response: < 5.00

Query: Given CC(C)N1CCC(n2cnc3ccc(-c4cnc(Cl)c(NS(C)(=O)=O)c4)cc3c2=O)CC1 [Compound 523] , state its recorded pIC50.
Response: > 7.00

Query: Given CN1CCC(n2cnc3ccc(-c4cnc(Cl)c(NS(C)(=O)=O)c4)cc3c2=O)CC1 [Compound 526] , state its recorded pIC50.
Response: > 6.00

Query: Given C[C@H]1CN(c2cnc3cccc(-c4ccc5oc(N)nc5c4)c3n2)CCN1 [Compound 342] , state its recorded pIC50.
Response: < 5.00

Query: Given CCOC(=O)N1CCN(c2cnc3ccc(-c4ccc5oc(N)nc5c4)cc3n2)CC1 [Compound 119] , state its recorded pIC50.
Response: > 5.00

Query: Given Cc1cc(-c2ccc3nc(N)oc3c2)cn2c(C(=O)N3CCOCC3)cnc12 [Compound 449] , state its recorded pIC50.
Response: < 5.00

Query: Given Cc1ncccc1-c1cnc2ccc(-c3ccc4oc(N)nc4c3)cc2n1 [Compound 185] , state its recorded pIC50.
Response: < 5.00

Query: Given C[C@H]1CN(c2cnc3ccc(-c4cccc5nc(N)oc45)cc3n2)CCN1 [Compound 310] , state its recorded pIC50.
Response: < 5.00

Query: Given Nc1nc2ccc(-c3ccc4sc(N)nc4c3)cc2o1 [Compound 249] , state its recorded pIC50.
Response: > 6.00

Query: Given Nc1nc2cc(-c3ccc4ncc(C(=O)NC5CC5)n4c3)ccc2o1 [Compound 187] , state its recorded pIC50.
Response: > 6.00

Query: Given O=C(c1cnc2ccc(-c3cccc(NS(=O)(=O)c4ccc(F)cc4F)c3)cn12)N1CCOCC1 [Compound 454] , state its recorded pIC50.
Response: > 5.00

Query: Given Nc1nc2ccc(-c3ccc4ncn(C5CCOCC5)c(=O)c4c3)cc2o1 [Compound 63] , state its recorded pIC50.
Response: < 5.00

* * *

Target: PI3K α (p110α/p85α) (Homo sapiens, UniProt P42336)
Construct: purchased Upstate / Millipore Corporation
Experiment: PI 3-Kinase (human) HTRF assay, PI3K α
Assay type: biochemical
Settings: read-out: PI3K α IC50
Reported Endpoint: IC50

Query: Given CN1CCN(c2ccc(-c3cnc4ccc(-c5ccc6oc(N)nc6c5)cn34)cn2)CC1 [Compound 42] , state its recorded IC50.
Response: < 0.1 µM

Query: Given Nc1nc2ccc(-c3ccc4nnc(-c5cccnc5)n4c3)cc2o1 [Compound 301] , state its recorded IC50.
Response: < 10 µM

Query: Given Cc1nc2ccc(-c3ccc4oc(N)nc4c3)cn2c1C(=O)N1CCOCC1 [Compound 92] , state its recorded IC50.
Response: > 10 µM

Query: Given Nc1nc2ccc(-c3ccc4nccc(-c5ccncc5)c4c3)cc2o1 [Compound 4] , state its recorded IC50.
Response: < 0.1 µM

* * *

Molecular target: mTOR (Homo sapiens)
Construct: purchased Invitrogen
Sequence (P42345 1360-2549 limits assumed): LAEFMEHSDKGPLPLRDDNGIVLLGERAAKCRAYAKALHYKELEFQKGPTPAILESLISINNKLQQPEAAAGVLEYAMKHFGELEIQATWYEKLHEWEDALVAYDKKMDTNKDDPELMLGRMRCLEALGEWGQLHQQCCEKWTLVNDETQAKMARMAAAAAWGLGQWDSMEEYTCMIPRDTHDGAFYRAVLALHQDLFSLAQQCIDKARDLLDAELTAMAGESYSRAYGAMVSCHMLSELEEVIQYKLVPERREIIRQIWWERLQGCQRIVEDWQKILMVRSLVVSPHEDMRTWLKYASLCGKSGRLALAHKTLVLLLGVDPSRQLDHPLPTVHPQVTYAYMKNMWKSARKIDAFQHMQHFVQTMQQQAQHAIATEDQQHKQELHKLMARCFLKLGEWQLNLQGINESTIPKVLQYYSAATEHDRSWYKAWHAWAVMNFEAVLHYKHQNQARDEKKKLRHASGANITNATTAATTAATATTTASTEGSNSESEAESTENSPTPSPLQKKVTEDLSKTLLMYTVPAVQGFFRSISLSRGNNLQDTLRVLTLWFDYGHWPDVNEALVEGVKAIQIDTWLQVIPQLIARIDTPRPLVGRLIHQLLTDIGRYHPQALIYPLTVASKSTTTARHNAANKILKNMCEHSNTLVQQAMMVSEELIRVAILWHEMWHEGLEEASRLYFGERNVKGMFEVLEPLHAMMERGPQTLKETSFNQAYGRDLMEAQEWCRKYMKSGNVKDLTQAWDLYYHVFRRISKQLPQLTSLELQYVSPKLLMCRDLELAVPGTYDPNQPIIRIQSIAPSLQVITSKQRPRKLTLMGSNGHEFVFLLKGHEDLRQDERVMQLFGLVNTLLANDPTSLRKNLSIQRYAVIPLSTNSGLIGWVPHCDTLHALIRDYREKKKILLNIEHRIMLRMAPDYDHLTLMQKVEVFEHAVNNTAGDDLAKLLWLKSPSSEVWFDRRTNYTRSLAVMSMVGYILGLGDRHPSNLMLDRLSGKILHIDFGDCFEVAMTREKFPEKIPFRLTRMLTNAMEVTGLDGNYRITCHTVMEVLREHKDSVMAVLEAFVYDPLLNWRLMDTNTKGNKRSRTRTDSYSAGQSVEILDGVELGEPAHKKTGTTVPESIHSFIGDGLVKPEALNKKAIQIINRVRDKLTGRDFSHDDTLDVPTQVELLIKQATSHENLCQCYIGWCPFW
Experiment: mTOR kinase inhibition assay (radiometric or LanthaScreen TR-FRET)
Type: biochemical
Conditions: Table 4 (PI3K α inhibitors); read-out: mTORC IC50
Reported Endpoint: IC50

Completed entries (count: 5):
Test Smiles: C[C@H]1COCCN1C1CN(c2cnc3ccc(-c4ccc5oc(N)nc5c4)nc3n2)C1
Target Of Assay: mTOR (Homo sapiens)
IC50: > 10 µM

Test Smiles: CCN1CCN(C2CN(c3cnc4ccc(-c5ccc6oc(N)nc6c5)nc4c3)C2)CC1
Target Of Assay: mTOR (Homo sapiens)
IC50: > 10 µM

Test Smiles: Cc1nccn1C1CN(c2cnc3ccc(-c4ccc5oc(N)nc5c4)nc3c2)C1
Target Of Assay: mTOR (Homo sapiens)
IC50: > 10 µM

Test Smiles: CN1CCN(C2CN(c3cnc4ccc(-c5ccc6oc(N)nc6c5)nc4c3)C2)CC1=O
Target Of Assay: mTOR (Homo sapiens)
IC50: < 10 µM

Test Smiles: CCN1CCN(C2CN(c3cnc4ccc(-c5ccc6oc(N)nc6c5)nc4n3)C2)CC1
Target Of Assay: mTOR (Homo sapiens)
IC50: < 10 µM

Turning to the following compound.
Query: Given Nc1nc2cc(-c3ccc4ncc(N5CC(N6CCN(CCO)CC6)C5)cc4n3)ccc2o1 , state its recorded IC50.
Response: > 10 µM

* * *

Target: PI3K β (p110β/p85α) (Homo sapiens)
Construct: purchased Upstate / Millipore Corporation
Sequence (P42338 whole entry): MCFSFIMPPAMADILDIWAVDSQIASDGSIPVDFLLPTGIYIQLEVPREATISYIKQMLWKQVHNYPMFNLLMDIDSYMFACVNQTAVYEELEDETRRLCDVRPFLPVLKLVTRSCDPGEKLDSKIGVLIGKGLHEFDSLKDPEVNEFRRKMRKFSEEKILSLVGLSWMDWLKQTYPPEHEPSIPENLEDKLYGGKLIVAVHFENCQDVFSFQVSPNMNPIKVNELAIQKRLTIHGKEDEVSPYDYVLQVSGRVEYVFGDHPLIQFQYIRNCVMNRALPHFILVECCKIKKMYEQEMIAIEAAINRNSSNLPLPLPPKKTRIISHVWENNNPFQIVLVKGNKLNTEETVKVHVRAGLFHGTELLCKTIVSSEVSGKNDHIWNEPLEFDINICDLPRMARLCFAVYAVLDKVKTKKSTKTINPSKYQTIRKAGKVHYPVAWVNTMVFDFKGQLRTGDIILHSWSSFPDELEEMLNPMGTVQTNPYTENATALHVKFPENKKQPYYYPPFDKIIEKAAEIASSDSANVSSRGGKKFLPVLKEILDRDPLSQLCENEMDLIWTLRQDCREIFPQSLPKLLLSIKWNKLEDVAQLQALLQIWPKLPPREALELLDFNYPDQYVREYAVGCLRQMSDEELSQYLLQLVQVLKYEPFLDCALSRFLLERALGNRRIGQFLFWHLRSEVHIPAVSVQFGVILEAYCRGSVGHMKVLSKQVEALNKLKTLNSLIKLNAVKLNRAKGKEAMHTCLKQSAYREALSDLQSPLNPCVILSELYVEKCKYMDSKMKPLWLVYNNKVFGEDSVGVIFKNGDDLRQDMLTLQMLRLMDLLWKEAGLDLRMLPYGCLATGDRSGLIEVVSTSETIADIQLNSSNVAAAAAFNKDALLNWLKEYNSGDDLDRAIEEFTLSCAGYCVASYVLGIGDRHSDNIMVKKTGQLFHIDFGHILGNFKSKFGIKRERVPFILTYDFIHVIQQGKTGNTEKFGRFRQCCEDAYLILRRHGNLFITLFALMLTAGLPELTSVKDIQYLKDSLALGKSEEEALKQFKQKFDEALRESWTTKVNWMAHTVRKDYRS
Sequence (P27986 whole entry partner): as the sequence (P27986 whole entry partner) above
Assay: PI 3-Kinase (human) HTRF assay, PI3K β
Assay type: biochemical
Conditions: read-out: PI3K β IC50
pIC50: −log10 of the molar value.
Recorded pIC50 by entry

Test Smiles: COc1ncc(-c2ccc3ncc(C(=O)N4CCOCC4)n3c2)cc1NS(=O)(=O)c1ccccc1F
pIC50: > 5.00

Test Smiles: CC(=O)Nc1n[nH]c2cc(-c3ccc4oc(N)nc4c3)ccc12
pIC50: > 5.00

Turning to the following compound.
Query: Given C[C@H]1CN(c2cnc3cccc(-c4ccc5nc(N)oc5c4)c3n2)CCN1 , state its recorded pIC50.
Response: > 5.00
